- System: H727 (G12V)
- experiment: KRAS mutant cell proliferation inhibition assay (CellTiter-Glo 3D), H727
- Type: cell-based, human
- experimental_setup: H727 (G12V) cells, 7 days
pIC50: −log10 of the molar value.

{"compound": "CCc1c(F)ccc2cc(O)cc(-c3ncc4c(N5CCC[C@@](C)(O)C5)nc(OCC56CCCN5CC5(C6)CC5(F)F)nc4c3F)c12 (stereo in doubt) [Example A-13B]", "assayed_system": "H727 (G12V)", "pIC50": 7.29}
{"compound": "CCc1c(F)ccc2cc(O)cc(-c3ncc4c(N5CCC[C@](C)(O)C5)nc(OCC56CCCN5CC5(C6)CC5(F)F)nc4c3F)c12 (stereo in doubt) [Example A-13A]", "assayed_system": "H727 (G12V)", "pIC50": 5.70}
